src = patent US9187525B2

Each entry below carries its recorded EC50 group, cGMP in GTM-3 cells.
Target: T1, natriuretic peptide receptor-B (human)
T1 chain: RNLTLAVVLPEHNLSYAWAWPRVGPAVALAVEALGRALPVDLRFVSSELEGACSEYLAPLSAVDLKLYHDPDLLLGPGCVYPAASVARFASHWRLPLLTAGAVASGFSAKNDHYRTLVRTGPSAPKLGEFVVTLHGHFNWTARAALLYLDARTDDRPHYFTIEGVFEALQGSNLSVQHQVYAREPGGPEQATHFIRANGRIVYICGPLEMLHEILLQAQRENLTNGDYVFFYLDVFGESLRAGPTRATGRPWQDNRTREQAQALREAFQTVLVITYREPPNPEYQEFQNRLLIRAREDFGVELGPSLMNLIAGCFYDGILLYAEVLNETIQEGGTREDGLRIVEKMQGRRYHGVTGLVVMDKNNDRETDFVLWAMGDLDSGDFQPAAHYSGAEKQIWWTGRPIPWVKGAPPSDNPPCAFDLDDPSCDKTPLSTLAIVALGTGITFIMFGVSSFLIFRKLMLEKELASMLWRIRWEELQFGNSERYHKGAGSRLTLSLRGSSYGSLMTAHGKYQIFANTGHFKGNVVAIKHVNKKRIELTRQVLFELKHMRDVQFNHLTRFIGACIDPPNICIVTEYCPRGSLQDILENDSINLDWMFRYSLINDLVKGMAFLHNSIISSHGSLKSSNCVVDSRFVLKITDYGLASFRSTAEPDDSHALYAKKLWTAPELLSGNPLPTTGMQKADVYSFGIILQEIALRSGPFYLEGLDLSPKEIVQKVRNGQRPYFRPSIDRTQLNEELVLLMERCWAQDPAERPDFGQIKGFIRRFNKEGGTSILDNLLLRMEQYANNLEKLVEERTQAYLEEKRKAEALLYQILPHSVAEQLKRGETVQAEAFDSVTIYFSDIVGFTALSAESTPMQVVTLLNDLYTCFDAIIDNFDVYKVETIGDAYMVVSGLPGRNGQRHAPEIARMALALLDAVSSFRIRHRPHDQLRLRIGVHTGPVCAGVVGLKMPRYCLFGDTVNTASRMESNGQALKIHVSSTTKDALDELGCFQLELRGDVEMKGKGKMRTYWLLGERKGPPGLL
Assay: cell-based or functional assay
Numbered stars: 1 amine (or outer) side, 2 acyl side, 3 side chain; on linkers, the order of the positions; unused ones are H or OH. Square brackets hold non-standard residues; d marks the D form. Ends that are not written are not given here. * marks the point of attachment. Eal = rac-imidazolidine-2-carboxylic acid, O=C(C1N([*:1])CCN1[*:3])[*:2]; Pro(trans-4-NH2) = O=C([C@@H]1C[C@@H](N[*:3])CN1[*:1])[*:2]; Sni = (S)-nipecotic acid, O=C([C@H]1CCCN([*:1])C1)[*:2]; dDap(Me2) = CN(C)C[C@@H](N)C(=O)O; Hyp = O=C(O)[C@@H]1C[C@@H](O)CN1; NMeF = CN[C@@H](Cc1ccccc1)C(=O)O; NMeL = CN[C@@H](CC(C)C)C(=O)O; dDab = NCC[C@@H](N)C(=O)O; dNva = CCC[C@@H](N)C(=O)O; Octanoyl = CCCCCCCC(=O)*; Api = NC1(C(=O)O)CCNCC1; Che = not defined here; Sbt = 5-butyl-thiazole; Occ = octanoic acid; Sar = CNCC(=O)O
recorded-metric: EC50 group, cGMP in GTM-3 cells

INSERT INTO measurements (binder, recorded_metric, value) VALUES
  ('[Occ][Sni]F[dDap(Me2)]L[Hyp][NMeL]DP[Che] (reading uncertain; also: printed as Occ-Sni-Phe-dap(Me2)-Leu-Hyp-Nml-Asp-Pro-Che) [JAL-1604]', 'EC50 group, cGMP in GTM-3 cells', '≤ 1 µM'),
  ('Octanoyl-[dA]F[dL]L[Hyp][NMeL]D[Api]I-NH2 [JAL-1458]', 'EC50 group, cGMP in GTM-3 cells', '≤ 5 µM'),
  ('Octanoyl-[Sar]F[dR]L[Hyp][NMeL]DRI-NH2 [JAL-1273]', 'EC50 group, cGMP in GTM-3 cells', '≤ 5 µM'),
  ('[Occ][dP][NMeF]GLP[NMeL]DRI-NH2 [JAL-0957]', 'EC50 group, cGMP in GTM-3 cells', '≤ 15 µM'),
  ('[Sbt][dA]F[dR]L[Hyp][NMeL]DRI-NH2 [JAL-1345]', 'EC50 group, cGMP in GTM-3 cells', '≤ 15 µM'),
  ('Octanoyl-[dA]F[dL]L[Hyp][NMeL]DRI-NH2 [JAL-1042]', 'EC50 group, cGMP in GTM-3 cells', '≤ 1 µM'),
  ('Octanoyl-[dA]F[dNva]L[Hyp]LDRI-NH2 [JAL-1027]', 'EC50 group, cGMP in GTM-3 cells', '≤ 5 µM'),
  ('[Sbt][Sni]F[dR]L[Hyp][NMeL]DRI-NH2 [JAL-1343]', 'EC50 group, cGMP in GTM-3 cells', '≤ 1 µM'),
  ('Octanoyl-[Sni]F[dDab](Me2)L[Hyp][NMeL]VRI-NH2 [JAL-1786]', 'EC50 group, cGMP in GTM-3 cells', '≤ 5 µM'),
  ('Octanoyl-[Sni]F[dL]L[Pro(trans-4-NH2)][NMeL]VRI-NH2 [JAL-1401]', 'EC50 group, cGMP in GTM-3 cells', '≤ 1 µM'),
  ('Octanoyl-[Sni]F[dR]L[Hyp][NMeL]DRI-NH2 [JAL-1297]', 'EC50 group, cGMP in GTM-3 cells', '≤ 1 µM'),
  ('Octanoyl-[dA]F[dL]L[Eal][NMeL]DRI-NH2 [JAL-1281_01]', 'EC50 group, cGMP in GTM-3 cells', '≤ 5 µM');
